Origin of the recorded values: paper PMC9000710

Here, each record is paired with measured hemolysis at 240 min, 500 mg/L data.
Test: Hemolysis assay (stability of erythrocytes)
Format: cell-based, human
Conditions: male, human, heparinized whole blood diluted with saline (erythrocytes), c 500 mg/L, 240 min
Protocol: Heparinized whole blood was used from a healthy volunteer. The whole blood (10 mL) was diluted with saline solution (90 mL). For each UV-Vis measurement, 2.5 mL of diluted blood was used. […] The cells were centrifuged, and the absorbance of the supernatant, which contained plasma and lysed erythrocytes, was measured at 540 nm. The percentage of lysis was calculated from a standard curve of lysed erythrocytes treated with SDS [52].
ENDPOINT: hemolysis at 240 min, 500 mg/L

1) Cl.NCCCCCC(=O)NCC(=O)O [Amide 1]
0.42%
2) NCCCCCC(=O)NCC1CCC(C(=O)O)CC1 (centres unmarked) [Amide 3]
0.23%
3) Cl.NCC(=O)NCc1ccc(C(=O)O)cc1 [Amide 6]
0.31%
4) Cl.NCCCCCC(=O)NCc1ccc(C(=O)O)cc1 [Amide 2]
0.43%
5) Cl.NCCCCCC(=O)NCCCCCC(=O)O [Amide 4]
0.22%

---

Tested on: human blood plasma
Experiment: Clot formation and fibrinolysis (CFF) assay
Type: biochemical
Conditions: 50 mg/L; control plasma assumed as 100%; mean ± SD, n = 5–7
Counter-ions that a name gives are not always drawn. Where a SMILES comes first, the peptide text is derived from it.
ENDPOINT: VmaxC (of Fibrin Polymerization) (%)

1. Cl.NCC(=O)NCc1ccc(C(=O)O)cc1 [Amide 6]
101.11
2. NCC(=O)NCC(=O)O [Amide 5, Glycylglycine hydrochloride] (H-Gly-Gly-OH)
109.83
3. NC[C@H]1CC[C@H](C(=O)O)CC1 [TA, reference compound]
104.85
4. Cl.NCCCCCC(=O)NCc1ccc(C(=O)O)cc1 [Amide 2]
105.59
5. Cl.NCCCCCC(=O)NCCCCCC(=O)O [Amide 4]
105.89
6. NCCCCCC(=O)NCC1CCC(C(=O)O)CC1 (stereo not drawn) [Amide 3]
109.78
7. Cl.NCC(=O)NCCCCCC(=O)O [Amide 8]
105.67
8. Cl.NCCCCCC(=O)NCC(=O)O [Amide 1]
104.20
9. NCC(=O)NCC1CCC(C(=O)O)CC1 (stereo not drawn) [Amide 7]
111.45

---

Assay: Hemolysis assay (stability of erythrocytes)
Format: cell-based, human
Conditions: male, human, heparinized whole blood diluted with saline (erythrocytes), c 50 mg/L as printed in the third concentration block of amides 7 and 8, 120 min
ENDPOINT: hemolysis at 120 min, 50 mg/L (%)

1) NCC(=O)NCC1CCC(C(=O)O)CC1 (centres unmarked) [Amide 7]
0.23
2) Cl.NCC(=O)NCCCCCC(=O)O [Amide 8]
0.47

---

Assay: Hemolysis assay (stability of erythrocytes)
Type: cell-based, human
Conditions: male, human, heparinized whole blood diluted with saline (erythrocytes), c 5 mg/L, 240 min
Define the label as yes (1) when hemolysis at 240 min, 5 mg/L is strictly less than 0.3% and as no (0) in all remaining cases.

1. Cl.NCC(=O)NCc1ccc(C(=O)O)cc1 [Amide 6]
yes (1)
2. NCC(=O)NCC1CCC(C(=O)O)CC1 (centres unmarked) [Amide 7]
yes (1)
3. Cl.NCCCCCC(=O)NCCCCCC(=O)O [Amide 4]
yes (1)
4. Cl.NCCCCCC(=O)NCc1ccc(C(=O)O)cc1 [Amide 2]
no (0)
5. NCCCCCC(=O)NCC1CCC(C(=O)O)CC1 (centres unmarked) [Amide 3]
no (0)
